# experimental-system: Sko1 (UniProt Q02100)
# Sequence: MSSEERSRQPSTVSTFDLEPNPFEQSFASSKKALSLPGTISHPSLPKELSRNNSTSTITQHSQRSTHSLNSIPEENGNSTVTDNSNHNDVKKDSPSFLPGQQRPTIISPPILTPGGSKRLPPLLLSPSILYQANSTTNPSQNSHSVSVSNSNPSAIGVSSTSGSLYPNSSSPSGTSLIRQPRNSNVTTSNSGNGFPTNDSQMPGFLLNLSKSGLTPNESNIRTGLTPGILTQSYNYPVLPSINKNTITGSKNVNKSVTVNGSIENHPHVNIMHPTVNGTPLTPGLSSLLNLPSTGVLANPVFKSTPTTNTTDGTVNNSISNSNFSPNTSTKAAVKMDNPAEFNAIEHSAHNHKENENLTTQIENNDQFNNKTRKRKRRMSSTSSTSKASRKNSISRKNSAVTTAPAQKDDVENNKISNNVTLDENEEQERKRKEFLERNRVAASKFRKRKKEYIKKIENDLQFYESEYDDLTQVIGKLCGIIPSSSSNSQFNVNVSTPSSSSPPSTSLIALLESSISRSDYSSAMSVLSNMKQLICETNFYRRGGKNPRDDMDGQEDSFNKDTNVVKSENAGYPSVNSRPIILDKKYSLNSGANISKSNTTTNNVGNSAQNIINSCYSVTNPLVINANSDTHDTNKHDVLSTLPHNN
# protocol-notes: PBM E-score (8-mer binding enrichment) (E-score (-0.5 to 0.5)); higher = stronger / more preferred TF binding
# details: protein concentration: 200 nM; construct: GST-full length
In all, about 33,000 sequences were measured (“E-score (-0.5 to 0.5)”: median about -0.032, highest 2% from about 0.36 on). This is one part of a sample in which the highest values are shown more often than they occur.
PBM E-score vs 0.1: at or above is met, below is not met.

>  <record-sequence>
CCCCCCAC

>  <assigned-class>
not met

$$$$
>  <record-sequence>
CCTAAGAG

>  <assigned-class>
not met

$$$$
>  <record-sequence>
TAAACGAA

>  <assigned-class>
met

$$$$
>  <record-sequence>
CCTCACGC

>  <assigned-class>
not met

$$$$
>  <record-sequence>
GGATGAAA

>  <assigned-class>
not met

$$$$
>  <record-sequence>
CAAACGTG

>  <assigned-class>
met

$$$$
>  <record-sequence>
AGACAGCC

>  <assigned-class>
not met

$$$$
>  <record-sequence>
ATGCCAAA

>  <assigned-class>
not met

$$$$
>  <record-sequence>
AAGACGCG

>  <assigned-class>
not met

$$$$
>  <record-sequence>
GCGACGCA

>  <assigned-class>
met

$$$$
>  <record-sequence>
AAAACGTC

>  <assigned-class>
met

$$$$
>  <record-sequence>
AATACGCC

>  <assigned-class>
met

$$$$
>  <record-sequence>
TTGTGAAA

>  <assigned-class>
met

$$$$
>  <record-sequence>
CAAGTCGC

>  <assigned-class>
not met

$$$$
>  <record-sequence>
GTCTTTAA

>  <assigned-class>
met

$$$$
>  <record-sequence>
CAGTCGTC

>  <assigned-class>
not met

$$$$
>  <record-sequence>
AGCGTAAG

>  <assigned-class>
not met

$$$$
>  <record-sequence>
AGCGTAAT

>  <assigned-class>
met

$$$$
>  <record-sequence>
ACGACGCG

>  <assigned-class>
met

$$$$
>  <record-sequence>
AAAACGAC

>  <assigned-class>
met

$$$$
>  <record-sequence>
CGTAAGAC

>  <assigned-class>
met

$$$$
>  <record-sequence>
CTTCGAAG

>  <assigned-class>
not met

$$$$
>  <record-sequence>
ACCGTAAG

>  <assigned-class>
met

$$$$
>  <record-sequence>
AACGTGAT

>  <assigned-class>
met

$$$$
>  <record-sequence>
GGTAGATA

>  <assigned-class>
not met

$$$$
>  <record-sequence>
ATCGTAAT

>  <assigned-class>
met

$$$$
>  <record-sequence>
AGTAAGAG

>  <assigned-class>
not met

$$$$
>  <record-sequence>
ATCGTAAA

>  <assigned-class>
met

$$$$
>  <record-sequence>
ATGCTAAT

>  <assigned-class>
met

$$$$
>  <record-sequence>
GGTAAGAC

>  <assigned-class>
not met

$$$$
>  <record-sequence>
CTTCCCGC

>  <assigned-class>
not met

$$$$
>  <record-sequence>
AAGGTTGT

>  <assigned-class>
not met

$$$$
>  <record-sequence>
CGGACGCA

>  <assigned-class>
not met

$$$$
>  <record-sequence>
ACGGAAAT

>  <assigned-class>
met

$$$$
>  <record-sequence>
AAAACGTG

>  <assigned-class>
met

$$$$
>  <record-sequence>
AGCGTAAC

>  <assigned-class>
met

$$$$
>  <record-sequence>
AAAACGTT

>  <assigned-class>
met

$$$$
>  <record-sequence>
ATCGTAAG

>  <assigned-class>
met

$$$$
>  <record-sequence>
AGGACGCA

>  <assigned-class>
not met

$$$$
>  <record-sequence>
TATACGCA

>  <assigned-class>
met

$$$$
>  <record-sequence>
AATCGTTA

>  <assigned-class>
met

$$$$
>  <record-sequence>
CAAACGCA

>  <assigned-class>
not met

$$$$
>  <record-sequence>
AAGGTAAG

>  <assigned-class>
not met

$$$$
>  <record-sequence>
TAAACGGA

>  <assigned-class>
not met

$$$$
